# key: entry, value: chromatographic logP
Experiment: logP by HPLC
Type: physicochemical

Example results:
>>> test_value("CC(Nc1c(-c2ccc(F)cc2Cl)c(Cl)nc2c(C#N)cnn12)C(C)(C)C (stereo not drawn) [Example 4]")
4.92
>>> test_value("CC(C)C(C)Nc1c(-c2ccc(F)cc2Cl)c(Cl)nc2c(C(=O)C(F)(F)F)cnn12 (stereo not drawn) [Example 2]")
5.08

--- query ---
State its chromatographic logP for this compound: CC1CCN(c2c(-c3ccc(F)cc3Cl)c(Cl)nc3c(C(=O)C(F)(F)F)cnn23)CC1 [Example 1]
5.44
